Source listed as paper PMC6222614.

Tested on: S. epidermidis ATCC 35984
Assay: MIC, twofold serial microdilution
Type: cell-based
Settings: Staphylococcus epidermidis, ATCC35984; standard strain, 18 h, 35 °C
Description: […] Antibacterial activity was examined by the disc-diffusion method under standard conditions using Mueller-Hinton II agar medium (Becton Dickinson) according to CLSI (previously NCCLS) guidelines. Antifungal activities were assessed using Mueller-Hinton agar + 2% glucose and 0.5 µg/mL Methylene Blue Dye Medium. […] The results (diameter of the growth inhibition zone) were read after 18 h of incubation at 35 °C. […]
METRIC_NAME: MIC (µg/mL)

INSERT INTO assay_data (compound, u, observed_value) VALUES
  ('Cc1ccc(NC(=S)Nc2ccc(Cl)c([N+](=O)[O-])c2)cc1 [Compound 20]', 'µg/mL', 4);

P = CCCCc1ccc(NC(=S)Nc2ccc(Cl)c([N+](=O)[O-])c2)c(C)c1 [Compound 22]
Q = CSCCCNC(=S)Nc1ccc(Cl)c([N+](=O)[O-])c1 [Compound 29]
Problem: I'm curious, which of these has a smaller MIC number: P or Q ? Mark your answer with the label of the selected entry.
Result: P
(P: 4 µg/mL, Q: 16 µg/mL)

###

Test system: S. epidermidis MRSE 409/11
Assay: MIC, hospital methicillin-resistant strain
Format: cell-based
Settings: Staphylococcus epidermidis
METRIC_NAME: MIC (µg/mL)

A = C=CCNC(=S)Nc1ccc(Cl)c([N+](=O)[O-])c1 [Compound 28]
B = Cc1ccc(NC(=S)Nc2ccc(Cl)c([N+](=O)[O-])c2)cc1 [Compound 20]
Problem: Pick one: A or B . Which has the bigger MIC number? # reply format: chosen label
Result: A

###

Tested on: CCRF-SB
Experiment: Antiproliferative assay (MTT)
Type: cell-based, human
Details: concentration reducing cell proliferation by 50%, 96 h, mean of three determinations
Each entry below lists one item and its recorded CC50 value.
Quick reminder: number only, in µM, skip the unit.

Please review the following examples before continuing.
INSERT INTO measurements (molecule, observed_value) VALUES
  ('O=[N+]([O-])c1cc(NC(=S)Nc2ccc(F)c(Cl)c2)ccc1Cl [Compound 10]', 8.8),
  ('N#Cc1ccc(NC(=S)Nc2ccc(Cl)c([N+](=O)[O-])c2)cc1 [Compound 19]', 9.2);

Problem: Which CC50 is reported for this molecule? O=[N+]([O-])c1cc(NC(=S)Nc2ccc(Br)cc2)ccc1Cl [Compound 6]
Result: 8
